Molecular target: Solute carrier organic anion transporter family member 2A1 (Homo sapiens, UniProt Q92959)
measurementLabel: pKi
Answers are plain numbers, as −log10 of the molar value.

* CCCCC[C@H](O)/C=C/C1[C@H](O)C[C@H](O)[C@@H]1C/C=C\CCCC(=O)O (stereo partly specified) | 7.35
* CCCCC[C@@H](O)/C=C/[C@@H]1[C@@H](C/C=C/CCCC(=O)NS(C)(=O)=O)[C@@H](O)C[C@H]1O | 6.51

Okay, next one:
Provide only the value of recorded pKi for CCCCC[C@@H](O)/C=C/[C@@H]1[C@@H](C/C=C/CCCC(N)=O)[C@@H](O)C[C@H]1O
5.14

----------
Below are Ki values recorded for Solute carrier organic anion transporter family member 2A1 (Homo sapiens).

For orientation, consider the following solved cases.
- CCCCC[C@@H](O)/C=C/[C@@H]1[C@@H](C/C=C/CCCCN)[C@@H](O)C[C@H]1O: > 10 µM
- CCCCC[C@H](/C=C/[C@@H]1[C@@H](C/C=C/CCCC(=O)O)[C@@H](O)C[C@H]1O)OC: > 10 µM

Okay, next one:
Provide only the value of recorded Ki for CCCCC[C@H](/C=C/[C@@H]1[C@@H](C/C=C/CCCC(N)=O)[C@@H](O)C[C@H]1O)OC
> 10 µM
